Tested on: C. glabrata mating GPCR
Conditions: cognate synthetic peptide pheromone, biosensor settings
pEC50: −log10 of the molar value.

{"chain.sequence": "WHWVRLRKGQGLF [WHWVRLRKGQGLF (SEQ ID NO: 8)]", "target": "C. glabrata mating GPCR", "pEC50": 5.44}

* * *

Tested on: M. oryzea mating GPCR
Type: cell-based, Magnaporthe oryzea

{"chain.sequence": "QWCPRRGQPCW [QWCPRRGQPCW (SEQ ID NO: 17)]", "target": "M. oryzea mating GPCR", "EC50, µM": 5}
